- MEASURED_ON: Indoleamine 2,3-dioxygenase 1 (Homo sapiens, UniProt P14902)
- TEST: Inhibition of IDO1 (unknown origin) assessed as reduction in N'-formlylkynurenine formation at 1 uM using D-Tryptophan as substrate in presence of ascorbate and methylene blue relative to control
- Sequence (P14902 whole entry, looked up): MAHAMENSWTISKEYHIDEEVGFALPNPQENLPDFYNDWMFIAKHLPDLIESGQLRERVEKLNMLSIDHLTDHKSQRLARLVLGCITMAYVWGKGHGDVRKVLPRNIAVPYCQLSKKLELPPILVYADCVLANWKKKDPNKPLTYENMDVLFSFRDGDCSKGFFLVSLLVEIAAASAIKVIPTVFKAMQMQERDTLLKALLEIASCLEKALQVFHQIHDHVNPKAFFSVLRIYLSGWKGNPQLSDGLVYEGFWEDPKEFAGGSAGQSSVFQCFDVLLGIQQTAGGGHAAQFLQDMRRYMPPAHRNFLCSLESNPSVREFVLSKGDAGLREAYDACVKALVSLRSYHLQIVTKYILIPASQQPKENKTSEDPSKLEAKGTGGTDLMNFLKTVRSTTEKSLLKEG
REPORTED_METRIC: inhibition (%)

Input line: // returns reported inhibition for input "Cc1ccn2c3c(c(C(=O)O)c2c1)C(=O)c1ncccc1C3=O"
Output line: 54

Input line: Value lookup for inhibition; key = "O=C1c2c(O)cccc2C(=O)c2c1c(C(=O)O)c1ccccn21"
Output line: 60

Input line: // inhibition lookup, key: "O=C1c2ncccc2C(=O)c2c1c(Cc1ccccc1)c1ccccn21"
Output line: 56

Input line: What value of inhibition has been recorded for this entry: "O=C1c2ncccc2C(=O)c2c1c(C(=O)O)c1cc(I)ccn21"
Output line: 67

Input line: Please look up its inhibition: "Cc1ccccc1NC(=O)c1c2c(n3ccccc13)C(=O)c1cccnc1C2=O"
Output line: 64

Input line: Quick one: inhibition for "COC(=O)c1c2c(n3ccccc13)C(=O)c1cccc(O)c1C2=O" ?
Output line: 77

Input line: For the compound "COC(=O)c1c2c(n3ccccc13)C(=O)c1ccccc1C2=O" , what inhibition is on record?
Output line: 77

Input line: Requested field: inhibition. Item: "CCOC(=O)c1c2c(n3ccccc13)C(=O)c1cccnc1C2=O"
Output line: 61

Input line: // inhibition lookup, key: "CN(C)CCNC(=O)c1c2c(n3ccccc13)C(=O)c1ncccc1C2=O"
Output line: 78

Input line: # inhibition lookup, item "O=C1c2cccnc2C(=O)c2c1c(C(=O)O)c1ccccn21"
Output line: 70

Input line: # lookup: inhibition of "CSc1ccn2c3c(c(C(=O)NCCN(C)C)c2c1)C(=O)c1cccnc1C3=O"
Output line: 72.5

Input line: Quick one: inhibition for "NC(=S)NNC(=O)c1c2c(n3ccccc13)C(=O)c1ncccc1C2=O" ?
Output line: 74.5

Input line: Name the reported inhibition value associated with the compound "O=C1c2ccccc2C(=O)c2c1c(C(=O)O)c1ccccn21"
Output line: 61

###

- MEASURED_ON: Indoleamine 2,3-dioxygenase 1 (Homo sapiens, UniProt P14902)
- TEST: Inhibition of IDO1 (unknown origin) assessed as reduction in N'-formlylkynurenine formation using D-Tryptophan as substrate in presence of ascorbate and methylene blue
- MEASUREMENT_CONDITIONS: in the assay text read “ascorbate” for “aspartate”
- Sequence (P14902 whole entry): as the sequence (P14902 whole entry, looked up) above
pIC50: −log10 of the molar value.
REPORTED_METRIC: pIC50

# example entries with known answers
Input line: Bench note: what pIC50 did "O=C1c2ccccc2C(=O)c2c1c(C(=O)O)c1ccccn21" show?
Output line: 6.15

Input line: Quick one: pIC50 of "Cc1ccn2c3c(c(C(=O)O)c2c1)C(=O)c1cccnc1C3=O" ?
Output line: 6.40

Input line: Tell me the measured pIC50 of "COC(=O)c1c2c(n3ccccc13)C(=O)c1cccnc1C2=O" , please.
Output line: 6.35

Input line: Using the record for "Cc1ccccc1NC(=O)c1c2c(n3ccccc13)C(=O)c1cccnc1C2=O" , report its pIC50.
Output line: 6.87

[P] O=C1c2cccnc2C(=O)c2c1c(C(=O)O)c1cc(I)ccn21
[Q] COc1ccn2c3c(c(C(=O)O)c2c1)C(=O)c1cccnc1C3=O
[R] CCOC(=O)c1c2c(n3ccccc13)C(=O)c1cccnc1C2=O
[S] CSc1ccn2c3c(c(C(=O)NCCN(C)C)c2c1)C(=O)c1cccnc1C3=O
Input line: List these items ordered by pIC50, big to small. Write the labels in rank order as requested.
Output line: S, P, Q, R
(S: 7.30, P: 6.93, Q: 6.52, R: 6.01)
